- Test system: Endothelial cells (HUVEC)
- protocol: Neovessels formation inhibition (capillary tube formation on Matrigel)
- Format: cell-based
- measurement-conditions: Homo sapiens; HUVEC on Matrigel, compounds overnight; read-out: Neovessels Formation Inhibition Total Tubule Length IC50
pIC50: −log10 of the molar value. Structures can show the parent of a compound that is named as a salt.
Hi, to clarify the labels: met covers pIC50 from 8 upward, not met covers anything below 8.

[[record]]
compound = "CCCOc1c(OC)cc(C(=O)c2cncc3c(N)c(OCC)ccc23)cc1OC [Compound 66, hydrochloride]"
study_system = "Endothelial cells (HUVEC)"
label = "met"

[[record]]
compound = "CCOc1ccc2c(C(=O)c3cc(OC)c(OC)c(OC)c3)cncc2c1NC(=O)CN"
study_system = "Endothelial cells (HUVEC)"
label = "not met"

[[record]]
compound = "CCOc1ccc2c(Cc3cc(OC)c(OCC(C)C)c(OC)c3)cncc2c1O [Compound 20, hydrochloride]"
study_system = "Endothelial cells (HUVEC)"
label = "not met"

[[record]]
compound = "CCOc1ccc2c(Cc3cc(OC)c(OC)c(OC)c3)cncc2c1O [Compound 1, hydrochloride]"
study_system = "Endothelial cells (HUVEC)"
label = "not met"

[[record]]
compound = "CCOc1ccc2c(Cc3cc(OC)c(OC)c(OC)c3)cncc2c1OS(N)(=O)=O [Compound 21, hydrochloride]"
study_system = "Endothelial cells (HUVEC)"
label = "not met"

[[record]]
compound = "C=CCOc1c(OC)cc(Cc2cncc3c(O)c(OCC)ccc23)cc1OC [Compound 32, hydrochloride]"
study_system = "Endothelial cells (HUVEC)"
label = "not met"

[[record]]
compound = "CCCOc1c(OC)cc(Cc2cncc3c(O)c(OCC)ccc23)cc1OC [Compound 19, hydrochloride]"
study_system = "Endothelial cells (HUVEC)"
label = "not met"

[[record]]
compound = "CCOc1ccc2c(Cc3cc(OC)c(OCC)c(OC)c3)cncc2c1O [Compound 14, hydrochloride]"
study_system = "Endothelial cells (HUVEC)"
label = "not met"

[[record]]
compound = "CCOc1ccc2c(C(=O)c3cc(OC)c(OC)c(OC)c3)cncc2c1O [Compound 97, hydrochloride]"
study_system = "Endothelial cells (HUVEC)"
label = "met"

[[record]]
compound = "CC[C@]1(O)C[C@@H]2CN(CCc3c([nH]c4ccccc34)[C@@](C(=O)OC)(c3cc4c(cc3OC)N(C)[C@H]3[C@@](O)(C(=O)OC)[C@H](OC(C)=O)[C@]5(CC)C=CCN6CC[C@]43[C@@H]65)C2)C1 [Vinblastine, reference compound]"
study_system = "Endothelial cells (HUVEC)"
label = "met"


Origin of measurements: patent US20130131018A1
